experiment: Cytotoxicity against mouse RAW264.7 cells assessed as cell viability at 10 uM by MTS assay relative to control
Measured property: viability at 10 µM

INSERT INTO assay_data (compound, reported_value) VALUES
  ('O=C1/C(=C/c2cccc(OC(F)(F)F)c2)CCc2cc(O)ccc21', '> 90%'),
  ('O=C1/C(=C/c2ccc(OC(F)(F)F)cc2)CCc2ccc(O)cc21', '> 90%'),
  ('O=C1/C(=C/c2cccc(C(F)(F)F)c2)CCc2ccc(O)cc21', '< 90%'),
  ('O=C1/C(=C/c2ccccc2C(F)(F)F)CCc2ccc(O)cc21', '> 90%'),
  ('O=C1/C(=C/c2ccccc2)CCc2c(O)cccc21', '< 90%'),
  ('O=C1/C(=C/c2cccnc2)CCc2ccc(O)cc21', '> 90%'),
  ('O=C1/C(=C/c2ccccc2)CCc2cc(O)ccc21', '> 90%'),
  ('O=C1/C(=C/c2ccc(Br)cc2)CCc2ccc(O)cc21', '> 90%'),
  ('O=C1/C(=C/c2ccccc2Br)CCc2cc(O)ccc21', '> 90%'),
  ('O=C1/C(=C/c2ccc(Cl)cc2)CCc2c(O)cccc21', '< 90%'),
  ('O=C1/C(=C/c2cccc(O)c2)CCc2cc(O)ccc21', '> 90%'),
  ('O=C1/C(=C/c2ccccc2Cl)CCc2cc(O)ccc21', '> 90%');

====

The following compounds are shown together with reported viability at 10 µM values.
assay: Cytotoxicity against mouse RAW264.7 cells assessed as cell viability at 10 uM by MTS assay relative to control
Measured property: viability at 10 µM

INSERT INTO measurements (compound, reported_value) VALUES
  ('O=C1/C(=C/c2cccc(F)c2)CCc2c(O)cccc21', '< 90%'),
  ('O=C1/C(=C/c2ccc(C(F)(F)F)cc2)CCc2ccc(O)cc21', '> 90%'),
  ('O=C1/C(=C/c2cccc(OC(F)(F)F)c2)CCc2ccc(O)cc21', '< 90%');

====

system: RAW264.7; assay: Inhibition of ROS production in LPS-induced mouse RAW264.7 cells; type: functional, cell-based
pIC50: −log10 of the molar value.
pIC50 values, listed per item
Measured property: pIC50

INSERT INTO assay_data (compound, censor_symbol, reported_value) VALUES
  ('O=C1/C(=C/c2cccc(F)c2)CCc2cc(O)ccc21', '=', 5.91),
  ('O=C1/C(=C/c2ccccn2)CCc2cc(O)ccc21', '<', 5.00),
  ('O=C1/C(=C/c2ccccc2O)CCc2cc(O)ccc21', '=', 6.26),
  ('O=C1/C(=C/c2ccccc2Br)CCc2c(O)cccc21', '=', 5.91),
  ('O=C1/C(=C/c2cccnc2)CCc2ccc(O)cc21', '=', 5.52),
  ('O=C1/C(=C/c2cccc(C(F)(F)F)c2)CCc2cc(O)ccc21', '=', 6.74),
  ('O=C1/C(=C/c2cccc(O)c2)CCc2ccc(O)cc21', '=', 6.09),
  ('O=C1/C(=C/c2ccccc2Cl)CCc2ccc(O)cc21', '=', 6.57),
  ('O=C1/C(=C/c2cccc(Cl)c2)CCc2ccc(O)cc21', '=', 6.68),
  ('O=C1/C(=C/c2cccc(F)c2)CCc2ccc(O)cc21', '=', 6.08),
  ('O=C1/C(=C/c2ccccc2Cl)CCc2c(O)cccc21', '=', 5.89),
  ('O=C1/C(=C/c2cccnc2)CCc2c(O)cccc21', '=', 5.53),
  ('O=C1/C(=C/c2ccc(OC(F)(F)F)cc2)CCc2cc(O)ccc21', '=', 5.87),
  ('O=C1/C(=C/c2ccccc2C(F)(F)F)CCc2c(O)cccc21', '=', 5.42),
  ('O=C1/C(=C/c2ccc(F)cc2)CCc2ccc(O)cc21', '=', 6.08),
  ('O=C1/C(=C/c2ccc(Cl)cc2)CCc2ccc(O)cc21', '=', 5.96),
  ('O=C1/C(=C/c2ccc(C(F)(F)F)cc2)CCc2ccc(O)cc21', '<', 5.00),
  ('O=C1/C(=C/c2ccccc2Br)CCc2ccc(O)cc21', '=', 6.30),
  ('O=C1/C(=C/c2ccc(F)cc2)CCc2cc(O)ccc21', '=', 5.86),
  ('O=C1/C(=C/c2cccc(Br)c2)CCc2c(O)cccc21', '=', 5.77),
  ('O=C1/C(=C/c2ccccn2)CCc2c(O)cccc21', '=', 6.13),
  ('O=C1/C(=C/c2cccc(O)c2)CCc2cc(O)ccc21', '=', 5.45),
  ('O=C1/C(=C/c2ccc(C(F)(F)F)cc2)CCc2cc(O)ccc21', '=', 5.49),
  ('O=C1/C(=C/c2ccccc2)CCc2cc(O)ccc21', '=', 5.88),
  ('O=C1/C(=C/c2ccccc2Br)CCc2cc(O)ccc21', '=', 5.97);

====

tested on: RAW264.7; assay: Inhibition of ROS production in LPS-induced mouse RAW264.7 cells; type: functional, cell-based
pIC50: −log10 of the molar value.
// label = 1 (yes) if pIC50 is not less than 6, otherwise 0 (no)

INSERT INTO assay_data (compound, class_assignment) VALUES
  ('O=C1/C(=C/c2cccc(Cl)c2)CCc2cc(O)ccc21', '0 (no)'),
  ('O=C1/C(=C/c2cccc(OC(F)(F)F)c2)CCc2cc(O)ccc21', '1 (yes)'),
  ('O=C1/C(=C/c2ccccc2OC(F)(F)F)CCc2ccc(O)cc21', '1 (yes)'),
  ('O=C1/C(=C/c2ccccc2Cl)CCc2cc(O)ccc21', '0 (no)'),
  ('O=C1/C(=C/c2ccc(Cl)cc2)CCc2cc(O)ccc21', '0 (no)'),
  ('O=C1/C(=C/c2cccc(C(F)(F)F)c2)CCc2c(O)cccc21', '0 (no)'),
  ('O=C1/C(=C/c2cccc(Br)c2)CCc2ccc(O)cc21', '1 (yes)'),
  ('O=C1/C(=C/c2cccnc2)CCc2cc(O)ccc21', '0 (no)'),
  ('O=C1/C(=C/c2ccncc2)CCc2ccc(O)cc21', '0 (no)');

====

Measured viability at 10 µM, listed per entry.
test: Cytotoxicity against mouse RAW264.7 cells assessed as cell viability at 10 uM by MTS assay relative to control
Measured property: viability at 10 µM

INSERT INTO measurements (compound, measured_property, reported_value) VALUES
  ('O=C1/C(=C/c2ccccc2)CCc2ccc(O)cc21', 'viability at 10 µM', '> 90%'),
  ('O=C1/C(=C/c2cccc(O)c2)CCc2ccc(O)cc21', 'viability at 10 µM', '> 90%'),
  ('O=C1/C(=C/c2ccccn2)CCc2ccc(O)cc21', 'viability at 10 µM', '< 90%'),
  ('O=C1/C(=C/c2ccccc2O)CCc2ccc(O)cc21', 'viability at 10 µM', '< 90%'),
  ('O=C1/C(=C/c2ccc(OC(F)(F)F)cc2)CCc2c(O)cccc21', 'viability at 10 µM', '< 90%'),
  ('O=C1/C(=C/c2cccc(F)c2)CCc2cc(O)ccc21', 'viability at 10 µM', '> 90%'),
  ('O=C1/C(=C/c2cccc(Cl)c2)CCc2cc(O)ccc21', 'viability at 10 µM', '> 90%'),
  ('O=C1/C(=C/c2ccccc2OC(F)(F)F)CCc2ccc(O)cc21', 'viability at 10 µM', '> 90%'),
  ('O=C1/C(=C/c2ccccc2C(F)(F)F)CCc2c(O)cccc21', 'viability at 10 µM', '> 90%'),
  ('O=C1/C(=C/c2ccc(O)cc2)CCc2c(O)cccc21', 'viability at 10 µM', '< 90%'),
  ('O=C1/C(=C/c2ccccc2Cl)CCc2ccc(O)cc21', 'viability at 10 µM', '> 90%'),
  ('O=C1/C(=C/c2ccccc2F)CCc2c(O)cccc21', 'viability at 10 µM', '< 90%'),
  ('O=C1/C(=C/c2ccc(Br)cc2)CCc2c(O)cccc21', 'viability at 10 µM', '< 90%'),
  ('O=C1/C(=C/c2cccc(O)c2)CCc2c(O)cccc21', 'viability at 10 µM', '< 90%'),
  ('O=C1/C(=C/c2ccc(Cl)cc2)CCc2cc(O)ccc21', 'viability at 10 µM', '> 90%'),
  ('O=C1/C(=C/c2ccncc2)CCc2ccc(O)cc21', 'viability at 10 µM', '> 90%'),
  ('O=C1/C(=C/c2ccc(OC(F)(F)F)cc2)CCc2cc(O)ccc21', 'viability at 10 µM', '> 90%'),
  ('O=C1/C(=C/c2ccccn2)CCc2cc(O)ccc21', 'viability at 10 µM', '> 90%'),
  ('O=C1/C(=C/c2cccc(C(F)(F)F)c2)CCc2cc(O)ccc21', 'viability at 10 µM', '> 90%'),
  ('O=C1/C(=C/c2ccc(F)cc2)CCc2c(O)cccc21', 'viability at 10 µM', '< 90%'),
  ('O=C1/C(=C/c2cccc(Cl)c2)CCc2c(O)cccc21', 'viability at 10 µM', '< 90%'),
  ('O=C1/C(=C/c2ccc(Cl)cc2)CCc2ccc(O)cc21', 'viability at 10 µM', '> 90%'),
  ('O=C1/C(=C/c2ccccc2O)CCc2c(O)cccc21', 'viability at 10 µM', '< 90%'),
  ('O=C1/C(=C/c2ccccc2C(F)(F)F)CCc2cc(O)ccc21', 'viability at 10 µM', '< 90%'),
  ('O=C1/C(=C/c2cccnc2)CCc2c(O)cccc21', 'viability at 10 µM', '> 90%');

Numbers sourced from ChEMBL document CHEMBL5104162.
